# system-under-test: T1, human GIP receptor (human, UniProt P48546 22-466)
# T1 construct: whole, on cells; also called hGIPR
# T1 sequence (looked up): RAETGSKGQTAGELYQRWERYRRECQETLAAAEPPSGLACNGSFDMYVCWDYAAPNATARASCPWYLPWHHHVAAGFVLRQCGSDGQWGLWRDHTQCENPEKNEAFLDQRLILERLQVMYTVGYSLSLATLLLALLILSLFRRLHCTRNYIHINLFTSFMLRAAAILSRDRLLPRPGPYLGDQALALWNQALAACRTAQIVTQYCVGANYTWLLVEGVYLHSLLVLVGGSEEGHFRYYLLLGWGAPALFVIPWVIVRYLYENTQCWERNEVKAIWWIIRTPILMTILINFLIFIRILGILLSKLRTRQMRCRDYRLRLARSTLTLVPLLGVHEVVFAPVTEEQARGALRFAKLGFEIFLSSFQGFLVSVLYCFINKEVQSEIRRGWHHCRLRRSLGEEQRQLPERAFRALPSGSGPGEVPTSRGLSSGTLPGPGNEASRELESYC
# experiment: 125I-hGIP competition binding, COS-7 cells expressing hGIPR;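 also: nonspecific binding taken as radioligand bound by untransfected cells, binding buffer with or without 2% HSA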
Ends that are not written are not given here. * marks the point of attachment. Stearoyl = CCCCCCCCCCCCCCCCCC(=O)*; Palmitoyl = CCCCCCCCCCCCCCCC(=O)*; Myristoyl = CCCCCCCCCCCCCC(=O)*; Lauroyl = CCCCCCCCCCCC(=O)*
# Lookup of reported log IC50 keyed by entry
Supply the numeric figure in log M, leaving out any unit text.

Please review the following examples before continuing.
binder: Lauroyl-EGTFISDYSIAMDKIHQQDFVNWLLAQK-NH2 [AT101 [hGIP(3-30)NH2-C12/3]]
endpoint-unit: log M
recorded-result: -8
//
binder: EGTFISDYSIAMDK(Stearoyl)IHQQDFVNWLLAQK-NH2 [AT114 [hGIP(3-30)NH2-C18/16]]
endpoint-unit: log M
recorded-result: -6.2
//
binder: Palmitoyl-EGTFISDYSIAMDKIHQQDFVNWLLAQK-NH2 [AT104 [hGIP(3-30)NH2-C16/3]]
endpoint-unit: log M
recorded-result: -7.1
//
binder: EGTFISDYSIAMDK(Palmitoyl)IHQQDFVNWLLAQK-NH2 [AT105 [hGIP(3-30)NH2-C16/16]]
endpoint-unit: log M
recorded-result: -6.3
//
binder: Myristoyl-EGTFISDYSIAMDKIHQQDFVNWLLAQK-NH2 [AT110 [hGIP(3-30)NH2-C14/3]]
endpoint-unit: log M
recorded-result: -7.3
//
binder: EGTFISDYSIAMEKIAQQDFVNWLLAQK(C12 fatty acyl)-NH2 [AT130 [hGIP(3-30)NH2[D15E; H18A]-C12/30]]
endpoint-unit: log M
recorded-result: -5.9

Exercise: Give me measured log IC50, please, for this binder: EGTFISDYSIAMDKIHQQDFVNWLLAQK(Palmitoyl)-NH2 [AT106 [hGIP(3-30)NH2-C16/30]]
Solution: -5.9

Exercise: Give me measured log IC50, please, for this binder: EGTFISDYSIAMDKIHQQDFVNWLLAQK(Stearoyl)-NH2 [AT115 [hGIP(3-30)NH2-C18/30]]
Solution: -5.8

Exercise: Give me measured log IC50, please, for this binder: TKISDYSIAMDKIHQQDFVNWLLAQK (C16-diacid fatty acyl on Lys 6 (GIP numbering); C-terminal amide) [AT168 [hGIP(5-30)NH2[F6K]-C16diacid/6]]
Solution: -7.3

Ref: patent US20200087373A1
